Procedure text: protein stability index of a GFP-peptide fusion (GPS, HEK-293T) (PSI 1-6); higher = more stable;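 note: 24-mer peptide tiles fused after GFP, lentivirally expressed, FACS-sorted into six equal bins by GFP/DsRed ratio, decoded by Illumina sequencing, PSI is the read-weighted mean bin number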
Assay setup: treatment: DMSO; c terminus: a fixed tail appended
Entries annotated with measured protein stability index

Some entries whose results are on file:
Residues	protein stability index
KVENLTLKNHFQSVLEQLELQEKQ [TAF7L]	3.54
AELAETIVYARVLALHPEAPGLYN [CCDC3]	1.99
GAVAPPVSGDLTKEDIDLIDILWR [NFE2L1]	3.16
AVAAATAAVEGSGGSGGGSHHHHQ [KCNA4]	5.04
TWEQTFQELIQEAKPRATWTLKLD [RTP4]	2.02
LSSLGENPQRQGLLKTPWRAASAM [GCH1]	2.8

// query protein stability index value for entry DCRVDLGSEVYRMLREPAEPVAAE [PDLIM4]
4.67

// query protein stability index value for entry LCATHFGEPLEKVASVGNSRPTGQ [KISS1]
3.95

// query protein stability index value for entry MPAHLLQDDISSSYTTTTTITAPP [SCD]
3.99

// query protein stability index value for entry GGLFVGKEGPMIHSGSVVGAGLPQ [CLCN6]
3.39

// query protein stability index value for entry TDHQTPPTSPVQGTTPQISPSTLI [HDAC6]
4.93

// query protein stability index value for entry VILFSSAVYFAEAEEAESHFSSIP [KCNA1]
2.37

====

Procedure text: protein stability index of a GFP-peptide fusion (GPS, HEK-293T) (PSI 1-6); higher = more stable
Assay setup: treatment: MLN4924 1 uM, 8 h; c terminus: a fixed tail appended
Assign class by protein stability index: not lower than 3 means True; lower than 3 means False.

Examples from the recorded data:
Residues	Group
QATLPVGSPSRPLSRRQLCPLTPG [C2CD2L]	True
SFRGAFSNSEKAKNIFRIRFHDPS [NET1]	False
VTGPDNGVRESETEQGFGEDLEDL [NFE2L1]	True
GGLFVGKEGPMIHSGSVVGAGLPQ [CLCN6]	True

// switching to the query sequence
Determine whether this sequence has protein stability index no lower than 3: QARYHDTPYKPPAGRAAAPELSYR [MYORG]
True

====

Procedure text: protein stability index of a GFP-peptide fusion (GPS, HEK-293T) (PSI 1-6); higher = more stable
Assay setup: treatment: MLN4924 1 uM, 8 h; c terminus: a fixed tail appended
Assign class by protein stability index: not lower than 3 means met; lower than 3 means not met.

Examples from the recorded data:
Residues	Group
KQGYILNSDQTTCRIQDLCAMEDH [MATN2]	met
VWKHGITPPLKNVRKKRFRKTQKK [TAF7L]	met

Determine whether this sequence has protein stability index no lower than 3: CAPYDSRLLGSARPELGAALGIYG [IRX6]
not met

Determine whether this sequence has protein stability index no lower than 3: LVPILIEAARNGKMKFVIGNGKNL [NSDHL]
not met

Determine whether this sequence has protein stability index no lower than 3: FLRSLRQMKQKVQSLYQEVFGRLR [NFE2L1]
not met

Determine whether this sequence has protein stability index no lower than 3: AYVAMIPQCIKEEDTPSDNDSGIC [ATF4]
met

Determine whether this sequence has protein stability index no lower than 3: SDLGFEVKCFNDLKAEELLLKIHE [CASP6]
not met

Determine whether this sequence has protein stability index no lower than 3: EHYRVQTQQTGTVRFDGYVIDGAT [FEM1B]
met

Determine whether this sequence has protein stability index no lower than 3: IGEGMTKYDYLMTLHGVVNESTVC [TENT5D]
not met

Determine whether this sequence has protein stability index no lower than 3: SAAWMKERTSPGAIHYCASTSEES [SPDEF]
met

Determine whether this sequence has protein stability index no lower than 3: LPKLYLPTGPRRGRDELGGGRRPG [CDKN1A]
met

Determine whether this sequence has protein stability index no lower than 3: ASGQSYSSREVFTSSSSSSSRQTR [KRT16]
met

Determine whether this sequence has protein stability index no lower than 3: ELKKMVQQSDLGQYVTFLRSFSDK [ALG2]
not met

Determine whether this sequence has protein stability index no lower than 3: QLAHMVKEQEETIQRIDENVLGAQ [STX5]
met
